src = patent EP1903056A2

- Test target: HLA-B*4501 (human)
- Assay explanation: competitive inhibition binding assay, purified HLA
- Condition set: remark: other sources report otherwise

>  <Binder>
EEGLEARGEA [MAGE2-derived B44 peptide …, position 13]

>  <Units>
nM

>  <IC50>
30

$$$$
